target: T1, mouse serum albumin (MSA), full length (mouse, UniProt P07724 25-608); assay: direct binding ELISA, coated MSA, anti-His-HRP; parameters: unit not given here
T1 construct: mature; Immobilized on CM5 chip (SPR) or coated on plates (ELISA); also called mouse albumin; murine serum albumin
metric.name: MSA DB ELISA (OD450) Ymax obs

INSERT INTO results (binder, endpoint_result) VALUES
  ('ADX_6727_B01 (K85S) (designed binder, Full His6-tagged entry) MGVSDVPRDLEVVAATPTSLLISWDAPAVTVRYYRITYGREVQKYSDLGPLYIYQEFTVPGSKSTATISGLKPGVDYTITVYAVTGSGESPASSSPISINYRTEIDKPSQHHHHHH', 91),
  ('ADX_6727_C01 (K85A) (designed binder, Full His6-tagged entry) MGVSDVPRDLEVVAATPTSLLISWDAPAVTVRYYRITYGREVQKYSDLGPLYIYQEFTVPGSKSTATISGLKPGVDYTITVYAVTGSGESPASSAPISINYRTEIDKPSQHHHHHH', 93),
  ('ADX_6727_C03 (Y35S) (designed binder, Full His6-tagged entry) MGVSDVPRDLEVVAATPTSLLISWDAPAVTVRYYRITYGREVQKSSDLGPLYIYQEFTVPGSKSTATISGLKPGVDYTITVYAVTGSGESPASSKPISINYRTEIDKPSQHHHHHH', 95),
  ('ADX_6727_D01 (K85T) (designed binder, Full His6-tagged entry) MGVSDVPRDLEVVAATPTSLLISWDAPAVTVRYYRITYGREVQKYSDLGPLYIYQEFTVPGSKSTATISGLKPGVDYTITVYAVTGSGESPASSTPISINYRTEIDKPSQHHHHHH', 91),
  ('ADX_6727_F03 (I43Y as printed in Table 4; I43A in Table 7) (designed binder, Full His6-tagged entry) MGVSDVPRDLEVVAATPTSLLISWDAPAVTVRYYRITYGREVQKYSDLGPLYAYQEFTVPGSKSTATISGLKPGVDYTITVYAVTGSGESPASSKPISINYRTEIDKPSQHHHHHH', 67);

The measurements presented in this section are drawn from patent US20180258158A1.
